biological target: T1, Rae1(31-368)-Nup98(157-213) heterodimer (human, UniProt P78406 31-368; P52948 157-213); assay: ITC; conditions: both partners purified
T1 construct: also called Rae1-Nup98; Rae1-Nup98 complex
T1 sequence (P78406 31-368, chain 1 of 2): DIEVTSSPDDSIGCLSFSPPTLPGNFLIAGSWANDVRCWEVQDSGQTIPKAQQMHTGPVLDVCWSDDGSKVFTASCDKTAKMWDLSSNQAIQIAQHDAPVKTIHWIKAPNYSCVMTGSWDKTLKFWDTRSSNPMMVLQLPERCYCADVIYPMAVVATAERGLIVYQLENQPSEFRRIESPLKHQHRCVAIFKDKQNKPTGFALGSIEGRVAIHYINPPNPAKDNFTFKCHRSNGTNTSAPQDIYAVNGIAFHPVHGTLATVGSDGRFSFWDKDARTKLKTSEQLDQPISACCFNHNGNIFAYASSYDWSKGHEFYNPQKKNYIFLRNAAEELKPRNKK
T1 sequence (P52948 157-213, chain 2 of 2): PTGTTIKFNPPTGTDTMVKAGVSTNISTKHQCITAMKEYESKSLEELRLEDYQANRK
measured.attribute: pKd
Lab note: report pKd as minus log10 of the concentration in molar units, number only.

[[record]]
binder = "YSQLDEEQPMEID (source: synthetic peptide) [SARS-CoV-2 ORF6 C3 peptide]"
measured_attribute = "pKd"
reading = 6.62


Look up pKd of RAITDGGESPMEWQTL [MHV-68 ORF10 CTT peptide] and report it.
5.24

State its pKd for this binder: YSELDDEEPMELD [SARS-CoV ORF6 C3 -YP]
6.96

Recall and state the measured pKd for YSQLDEEQPM (source: synthetic peptide) [SARS-CoV-2 ORF6 C3 lacking the last three residues 59-EID-61 but retaining M58] .
4.06

Identify the reported pKd for the following entry. YSELDDEEPMELDYP [SARS-CoV ORF6 C3 peptide]
6.43

Numbers sourced from paper PMC9376891.
